# pIC50 annotations
tested on: human prostate cancer cell line DU145; test: Antiproliferation assay, 72 hrs under air, Alamar Blue; format: cell-based; conditions: Homo sapiens, DU-145
pIC50: −log10 of the molar value.

- Smi: "CCc1c2c(nc3ccccc13)-c1c(N)c3c(c(=O)n1C2)COC(=O)[C@]3(O)CC"
  System name: "human prostate cancer cell line DU145"
  pIC50: 7.74
- Smi: "CC[C@@]1(O)C(=O)OCc2c1c(N)c1n(c2=O)Cc2c-1nc1ccccc1c2C"
  System name: "human prostate cancer cell line DU145"
  pIC50: 8.60
- Smi: "CC[C@@]1(O)C(=O)OCc2c1c(N)c1n(c2=O)Cc2cc3ccccc3nc2-1"
  System name: "human prostate cancer cell line DU145"
  pIC50: 7.30

----------
test system: bone marrow progenitor cells; test: Bone marrow progenitor cell clonogenic assay (CFU-GM), mouse; details: Mus musculus, CFU-GM, read-out: Mouse CFU-GM (IC50 nM) THLD
Measured parameter: IC50 (nM)

- Smi: "CC[C@@]1(O)C(=O)OCc2c1c(N)c1n(c2=O)Cc2c-1nc1ccccc1c2C"
  System name: "bone marrow progenitor cells"
  Limit sign: "="
  Test value: 560
- Smi: "CC[C@@]1(O)C(=O)OCc2c1c(N)c1n(c2=O)Cc2cc3ccccc3nc2-1"
  System name: "bone marrow progenitor cells"
  Limit sign: "="
  Test value: 710
- Smi: "CCc1c2c(nc3ccccc13)-c1c([N+](=O)[O-])c3c(c(=O)n1C2)COC(=O)[C@]3(O)CC"
  System name: "bone marrow progenitor cells"
  Limit sign: ">"
  Test value: 10000
- Smi: "CCc1c2c(nc3ccccc13)-c1c(N)c3c(c(=O)n1C2)COC(=O)[C@]3(O)CC"
  System name: "bone marrow progenitor cells"
  Limit sign: "="
  Test value: 620
- Smi: "CCc1c2c(nc3ccccc13)-c1c(NC=O)c3c(c(=O)n1C2)COC(=O)[C@]3(O)CC"
  System name: "bone marrow progenitor cells"
  Limit sign: "="
  Test value: 700
- Smi: "CC[C@@]1(O)C(=O)OCc2c1c(NC=O)c1n(c2=O)Cc2cc3ccccc3nc2-1"
  System name: "bone marrow progenitor cells"
  Limit sign: "="
  Test value: 920
- Smi: "CC[C@@]1(O)C(=O)OCc2c1c(N)c1n(c2=O)Cc2cc3c(N)cccc3nc2-1"
  System name: "bone marrow progenitor cells"
  Limit sign: "="
  Test value: 680

----------
tested on: bone marrow progenitor cells; test: Bone marrow progenitor cell clonogenic assay (CFU-GM), human; conditions: read-out: Human CFU-GM (IC90 nM) THLD; IC90, human bone marrow progenitor cells, clonogenic assay

- Molecule: "CC[C@@]1(O)C(=O)OCc2c1cc1n(c2=O)Cc2cc3c(N)cccc3nc2-1 [9-amino camptothecin, reference compound]"
  IC90, nM: 8

----------
test: Oral bioavailability; settings: rat, in vivo, Sprague-Dawley rats
Measured parameter: bioavailability

- Compound: "CCc1c2c(nc3ccccc13)-c1c(N)c3c(c(=O)n1C2)COC(=O)[C@]3(O)CC [TH1338]"
  Measured parameter: "bioavailability"
  Test value: "88.9%"

----------
// reported IC90 per item
Experiment: Bone marrow progenitor cell clonogenic assay (CFU-GM), human
Settings: human
Experimental: A clonogenic assay was performed using bone marrow progenitor cells derived from the blood of mice and humans.
Measured parameter: IC90

- Compound: "CC[C@@]1(O)C(=O)OCc2c1c(NC=O)c1n(c2=O)Cc2cc3ccccc3nc2-1 [TH1589]"
  Test value: "680 nM"
- Compound: "CCc1c2c(nc3ccccc13)-c1c([N+](=O)[O-])c3c(c(=O)n1C2)COC(=O)[C@]3(O)CC [TH1332]"
  Test value: "> 100 nM"
- Compound: "CC[C@@]1(O)C(=O)OCc2c1c(N)c1n(c2=O)Cc2c-1nc1ccccc1c2C [TH1339]"
  Test value: "100 nM"
